tested on: TSG-12 mRNA; assay: Northern blot analysis of TSG mRNA levels in FS-4 cells; format: cell-based, human; conditions: growth arrested FS-4 cells, 2 h; TNF 20 ng/ml, CHX 10 ug/ml, IFN-β 500 U/ml, IFN-γ 100 U/ml, IL-1-α 1 ng/ml, EGF 25 ng/ml, TGF-β 2 ng/ml, poly(I).poly(C) 50 ug/ml, TPA 100 ng/ml, A23187 1 uM, forskolin 10 uM, dBcAMP 100 uM, IBMX 100 uM
metric: Relative Increase in mRNA Level TSG-12

Example results:
• CCCCCCCCCCCCCC(=O)O[C@@H]1[C@@H](C)[C@@]2(O)[C@@H](C=C(CO)C[C@]3(O)C(=O)C(C)=C[C@@H]23)[C@@H]2C(C)(C)[C@]12OC(C)=O [TPA, 12-O-tetradecanoylphorbol 13-acetate] = ++
• C[C@@H]1C[C@@H]([C@H](O)CC2CC(=O)NC(=O)C2)C(=O)[C@@H](C)C1 [CHX, cycloheximide] = +++
• CNc1ccc2oc(C[C@H]3O[C@@]4(CC[C@H]3C)O[C@H]([C@H](C)C(=O)c3ccc[nH]3)[C@H](C)C[C@H]4C)nc2c1C(=O)O = ++
• CCCC(=O)Nc1ncnc2c1ncn2[C@@H]1O[C@@H]2COP(=O)(O)O[C@H]2[C@H]1OC(=O)CCC = +

// switching to the query compound
Ask: Param item = `C=C[C@@]1(C)CC(=O)[C@]2(O)[C@@]3(C)[C@@H](O)CCC(C)(C)[C@@H]3[C@H](O)[C@H](OC(C)=O)[C@@]2(C)O1` ; retrieve measured Relative Increase in mRNA Level TSG-12.
Result: 0
